Molecular target: human P450 51A1 (Homo sapiens, UniProt Q16850)
Sequence (Q16850 1-509): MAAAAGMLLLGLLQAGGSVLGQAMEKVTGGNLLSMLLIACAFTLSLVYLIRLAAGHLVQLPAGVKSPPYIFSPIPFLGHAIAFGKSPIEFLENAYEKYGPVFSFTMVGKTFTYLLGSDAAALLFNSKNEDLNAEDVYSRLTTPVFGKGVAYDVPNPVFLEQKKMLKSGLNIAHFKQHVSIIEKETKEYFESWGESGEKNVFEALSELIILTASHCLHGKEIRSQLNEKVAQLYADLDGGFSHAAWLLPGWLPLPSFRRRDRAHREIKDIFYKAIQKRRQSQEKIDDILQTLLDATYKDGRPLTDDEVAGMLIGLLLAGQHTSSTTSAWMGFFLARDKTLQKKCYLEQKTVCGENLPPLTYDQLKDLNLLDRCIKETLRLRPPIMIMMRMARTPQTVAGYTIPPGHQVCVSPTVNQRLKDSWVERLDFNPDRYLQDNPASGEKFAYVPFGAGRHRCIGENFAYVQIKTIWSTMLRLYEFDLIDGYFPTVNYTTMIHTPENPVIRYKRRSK
Property: IC50

Problem: Give the measured IC50 of CC(C)CCCC(C)[C@H]1CC[C@@]2(C)C3=CCC4C(C)(C)[C@@H](O)CC[C@]4(C)C3=CC[C@]12C (stereo partly shown) [dihydroagnosterol] .
Result: ≥ 10 µM

###

Target: human P450 51A1 (Homo sapiens, UniProt Q16850)
Assay: Stopped-flow koff measurements of P450 51A1-sterol complexes with ketoconazole trap
Format: binding
Parameters: made in house; host or cells: Escherichia coli
Conditions: 23 °C, 10 μM ketoconazole trap, 1 μM P450 51A1
Property: koff (s⁻¹)
One number for each entry, in s⁻¹.

Use the examples below as a reference point.
{"columns": ["Molecule", "koff [s⁻¹]"],
 "data": [
  ["CC(C)CCCC(C)[C@H]1CC[C@@]2(C=O)C3=C(CC[C@]12C)[C@@]1(C)CC[C@H](O)C(C)(C)C1CC3 (stereo partly drawn) [14α-CHO dihydrolanosterol, 24,25-dihydro-14α-formyl lanosterol]", 0.059],
  ["CC(C)CCCC(C)[C@H]1CC[C@@]2(CO)C3=C(CC[C@]12C)[C@@]1(C)CC[C@H](O)C(C)(C)C1CC3 (stereo partly drawn) [14α-CH2OH dihydrolanosterol, 24,25-dihydro-14α-CH2OH lanosterol]", 0.022],
  ["CC(C)CCC[C@@H](C)[C@H]1CC=C2C3=C(CC[C@@]21C)[C@@]1(C)CC[C@H](O)C(C)(C)[C@@H]1CC3 [dihydro FF-MAS, 24,25-dihydro FF-MAS]", 2]
]}

--- query ---
Problem: Give the measured koff of CC(C)CCCC(C)[C@H]1CC[C@@]2(C)C3=C(CC[C@]12C)[C@@]1(C)CC[C@H](O)C(C)(C)C1CC3 (stereo partly shown) [dihydrolanosterol, 24,25-dihydrolanosterol] .
Result: 0.054

###

Target: human P450 51A1 (Homo sapiens, UniProt Q16850)
Test: Single-turnover rapid-quench kinetics of [3-3H]-dihydrolanosterol oxidation (radio-HPLC)
Type: biochemical
Design: made in house; host or cells: Escherichia coli
Conditions: time 7 s
Property: concentration in single-turnover reaction (µM)
Answers are plain numbers, in µM.

{"columns": ["Compound", "Quantitative result"],
 "data": [
  ["CC(C)CCCC(C)[C@H]1CC[C@@]2(C=O)C3=C(CC[C@]12C)[C@@]1(C)CC[C@H](O)C(C)(C)C1CC3 (stereo partly drawn) [14α-CHO dihydrolanosterol, 24,25-dihydro-14α-formyl lanosterol]", 0],
  ["CC(C)CCCC(C)[C@H]1CC[C@@]2(C)C3=C(CC[C@]12C)[C@@]1(C)CC[C@H](O)C(C)(C)C1CC3 (stereo partly shown) [dihydrolanosterol, 24,25-dihydrolanosterol]", 0]
]}

State the recorded concentration in single-turnover reaction for every item in the following list.
1. CC(C)CCC[C@@H](C)[C@H]1CC=C2C3=C(CC[C@@]21C)[C@@]1(C)CC[C@H](O)C(C)(C)[C@@H]1CC3 [dihydro FF-MAS, 24,25-dihydro FF-MAS]
2. CC(C)CCCC(C)[C@H]1CC[C@@]2(CO)C3=C(CC[C@]12C)[C@@]1(C)CC[C@H](O)C(C)(C)C1CC3 (stereo partly drawn) [14α-CH2OH dihydrolanosterol, 24,25-dihydro-14α-CH2OH lanosterol]

Result:
7
0
